Sourced from ChEMBL document CHEMBL3259545

# Tested on: Trypanosoma brucei brucei
# Assay procedure: Antitrypanosomal activity against Trypanosoma brucei brucei 427 after 72 hrs by alamar blue assay
# Format: functional, organism-based
# Particulars: Trypanosoma brucei, 427, 72 h
Experimental endpoint: IC50 (µg/mL)
Numbers only, in µg/mL.

Below are worked cases with known answers.
Compound	IC50, µg/mL
Cc1ccsc1C(=O)c1ccn(-c2ccc3c(c2)B(O)OC3)c1	0.11
Nc1ccc(C(=O)c2ccn(-c3ccc4c(c3)B(O)OC4)c2)cc1	0.03
O=C(CCCN1C(=O)c2ccccc2C1=O)c1ccn(-c2ccc3c(c2)B(O)OC3)c1	0.72
CC(=O)c1ccn(-c2ccc3c(c2)B(O)OC3)c1	0.56
O=C(NCCc1ccccc1)c1cccn1-c1ccc2c(c1)B(O)OC2	0.68
O=C(Cc1ccccc1)c1ccn(-c2ccc3c(c2)B(O)OC3)c1	0.29
O=C(c1ccc(O)cc1)c1ccn(-c2ccc3c(c2)B(O)OC3)c1	0.06
NCc1ccc(C(=O)c2ccn(-c3ccc4c(c3)B(O)OC4)c2)cc1	0.18

Working through the 4 compounds below one at a time, give IC50 for each.
1. O=C(c1ccc(CO)cc1)c1ccn(-c2ccc3c(c2)B(O)OC3)c1
2. O=C(c1ccn(-c2ccc3c(c2)B(O)OC3)c1)C1CCCCC1
3. Cc1ccc(C(=O)c2ccn(-c3ccc4c(c3)B(O)OC4)c2)cc1
4. COc1ccc([S+]([O-])c2cn(-c3ccc4c(c3)B(O)OC4)c3ccccc23)cc1 (stereo not drawn)

1: 0.04; 2: 0.13; 3: 0.08; 4: 1.56

Working through the 8 compounds below one at a time, give IC50 for each.
1. O=C(c1cccc(Cl)c1)c1ccn(-c2ccc3c(c2)B(O)OC3)c1
2. COc1ccc(CNC(=O)c2cccn2-c2ccc3c(c2)B(O)OC3)cc1
3. CCCNC(=O)c1cccn1-c1ccc2c(c1)B(O)OC2
4. CC(=O)c1cccn1-c1ccc2c(c1)B(O)OC2
5. COc1ccc(C(=O)c2ccn(-c3ccc4c(c3)B(O)OC4)c2)cc1
6. O=C(c1ccccc1)c1cccn1-c1ccc2c(c1)B(O)OC2
7. CCCCCC(=O)c1ccn(-c2ccc3c(c2)B(O)OC3)c1
8. O=C(O)c1cccn1-c1ccc2c(c1)B(O)OC2

[0.35, 0.7, 3.21, 0.69, 0.11, 0.34, 0.09, 0.13]

* * *

# Tested on: Trypanosoma brucei brucei
# Assay procedure: Antitrypanosomal activity against Trypanosoma brucei brucei 427 after 72 hrs by alamar blue assay
# Assay type: functional, organism-based
# Particulars: Trypanosoma brucei, 427, 72 h
Experimental endpoint: IC50
Kindly report the value followed by its unit.

Line notation	IC50
O=C(c1ccc(F)cc1)c1cccn1-c1ccc2c(c1)B(O)OC2	0.4 µg/mL

Working through the 2 compounds below one at a time, give IC50 for each.
1. O=C(NC1CCCCC1)c1cccn1-c1ccc2c(c1)B(O)OC2
2. CNC(=O)c1cccn1-c1ccc2c(c1)B(O)OC2

["2.85 µg/mL", "0.86 µg/mL"]

* * *

# System: Trypanosoma brucei brucei
# Assay procedure: Antitrypanosomal activity against Trypanosoma brucei brucei 427 after 72 hrs by alamar blue assay
# Assay type: functional, organism-based
# Particulars: Trypanosoma brucei, 427, 72 h
Experimental endpoint: IC50

Below are worked cases with known answers.
Compound	Val
OB1OCc2ccc(-n3cc(Sc4ccc(F)cc4)c4ccccc43)cc21	> 5 µg/mL
O=C(c1ccccc1)c1ccn(-c2ccccc2)c1	> 5 µg/mL
O=C(c1ccccc1)c1ccn(-c2ccc3c(c2)C(O)OC3)c1 (stereo not drawn)	> 5 µg/mL

Working through the 8 compounds below one at a time, give IC50 for each.
1. O=[N+]([O-])c1ccc(Sc2cn(-c3ccc4c(c3)B(O)OC4)c3ccccc23)cc1
2. OB1OCc2ccc(-n3cc(Sc4ccccc4O)c4ccccc43)cc21
3. COc1ccc(S(=O)(=O)c2cn(-c3ccc4c(c3)B(O)OC4)c3ccccc23)cc1
4. COc1ccc(Sc2cn(-c3ccc4c(c3)B(O)OC4)c3ccccc23)cc1
5. OB1OCc2ccc(-n3cc(Sc4ccc(Cl)c(Cl)c4)c4ccccc43)cc21
6. COc1cc(C(=O)c2ccn(-c3ccc4c(c3)B(O)OC4)c2)cc(OC)c1OC
7. OB1OCc2ccc(-n3cc(Sc4ccc5ccccc5c4)c4ccccc43)cc21
8. CCCC(=O)c1ccn(-c2ccc3c(c2)B(O)OC3)c1

["> 5 µg/mL", "> 5 µg/mL", "> 5 µg/mL", "> 5 µg/mL", "> 5 µg/mL", "0.16 µg/mL", "> 5 µg/mL", "0.11 µg/mL"]

* * *

# System: Trypanosoma brucei brucei
# Assay procedure: Antitrypanosomal activity against Trypanosoma brucei brucei 427 after 72 hrs by alamar blue assay
# Format: functional, organism-based
# Particulars: Trypanosoma brucei, 427, 72 h
Experimental endpoint: IC50 (µg/mL)
Numbers only, in µg/mL.

Below are worked cases with known answers.
Line notation	IC50 [µg/mL]
OB1OCc2ccc(-n3cccc3)cc21	1.98
COc1ccccc1C(=O)c1ccn(-c2ccc3c(c2)B(O)OC3)c1	0.17
CCNC(=O)c1cccn1-c1ccc2c(c1)B(O)OC2	1.85

Request body: readout IC50, system Trypanosoma brucei brucei, query `O=C(NCc1ccccc1)c1cccn1-c1ccc2c(c1)B(O)OC2` . Return the value.
0.8

* * *

Can you tell me IC50 for the items I'm about to list?
# System: Trypanosoma brucei brucei
# Assay procedure: Antitrypanosomal activity against Trypanosoma brucei brucei 427 after 72 hrs by alamar blue assay
# Format: functional, organism-based
# Particulars: Trypanosoma brucei, 427, 72 h

Below are worked cases with known answers.
Line notation	Experimental endpoint	Val
OB1OCc2ccc(-n3cc(Sc4cccc(Cl)c4)c4ccccc43)cc21	IC50	> 5 µg/mL
OB1OCc2ccc(-n3ccc4ccccc43)cc21	IC50	> 5 µg/mL

Request the reported IC50 associated with `OB1OCc2ccc(-n3cc(Sc4ccc(Cl)cc4)c4ccccc43)cc21`
> 5 µg/mL
